Assign Km to each entry below.
tested on: Cyanidioschyzon merolae; test: Binding affinity to Cyanidioschyzon merolae ABCB1 assessed as Km
Numbers only, in µM.

Record excerpt, results attached:
CCCCOC(=O)c1ccccc1C1=c2cc3c4c(c2Oc2c1cc1c5c2CCCN5CCC1)CCC[N+]=4CCC3: 1.5
Cc1cccc(COC(=O)c2ccccc2C2=c3cc4c(cc3Oc3cc5c(cc32)CCCN5)=NCCC4)c1: 0.56
O=C(OCCc1ccccc1)c1ccccc1C1=c2cc3c(cc2Oc2cc4c(cc21)CCCN4)=NCCC3: 1.4
CCCCOC(=O)c1ccccc1-c1c2cc(C)c(=[N+]3CCCC3)cc-2oc2cc(N3CCCC3)c(C)cc12: 1.1
CCCCOC(=O)c1ccccc1C1=c2cc3c(cc2Oc2cc4c(cc21)CCCN4)=NCCC3: 1.7

Batch lookup, Km per entry.
1. COc1cc(COC(=O)c2ccccc2C2=c3cc4c(cc3Oc3cc5c(cc32)CCCN5)=NCCC4)cc(OC)c1
2. CN(C)c1cccc(COC(=O)c2ccccc2C2=c3cc4c(cc3Oc3cc5c(cc32)CCCN5)=NCCC4)c1
3. O=C(OCc1cccc(C(F)(F)F)c1)c1ccccc1C1=c2cc3c(cc2Oc2cc4c(cc21)CCCN4)=NCCC3

1: 0.31; 2: 0.52; 3: 0.44

Each compound below has a reported value. Please supply its Km.
1. CCCCOC(=O)c1ccccc1-c1c2cc(C)/c(=N\CC)cc-2oc2cc(NCC)c(C)cc12
2. CC/N=c1/cc2oc3cc(NCC)c(C)cc3c(-c3ccccc3C(=O)OCC)c-2cc1C

[4.6, 2.9]

List reported Km for each of these compounds:
1. COc1cccc(OC)c1COC(=O)c1ccccc1C1=c2cc3c(cc2Oc2cc4c(cc21)CCCN4)=NCCC3
2. O=C(OCc1ccccc1C(F)(F)F)c1ccccc1C1=c2cc3c(cc2Oc2cc4c(cc21)CCCN4)=NCCC3
3. O=C(OCc1ccccc1)c1ccccc1C1=c2cc3c(cc2Oc2cc4c(cc21)CCCN4)=NCCC3

1: 0.55; 2: 3.9; 3: 0.81

Hi there! I need Km for each item below, if you can.
1. O=C(OCc1ccc2ccccc2c1)c1ccccc1C1=c2cc3c(cc2Oc2cc4c(cc21)CCCN4)=NCCC3
2. COc1ccccc1COC(=O)c1ccccc1C1=c2cc3c(cc2Oc2cc4c(cc21)CCCN4)=NCCC3
3. COc1ccc(COC(=O)c2ccccc2C2=c3cc4c(cc3Oc3cc5c(cc32)CCCN5)=NCCC4)cc1
4. O=C(OCc1cc(C(F)(F)F)cc(C(F)(F)F)c1)c1ccccc1C1=c2cc3c(cc2Oc2cc4c(cc21)CCCN4)=NCCC3

0.77
0.5
0.73
2.3

These data points were gathered from ChEMBL document CHEMBL5357076.
